# tgt: Tyrosine-protein phosphatase non-receptor type 9 (Homo sapiens)
# Sequence (P43378 whole entry): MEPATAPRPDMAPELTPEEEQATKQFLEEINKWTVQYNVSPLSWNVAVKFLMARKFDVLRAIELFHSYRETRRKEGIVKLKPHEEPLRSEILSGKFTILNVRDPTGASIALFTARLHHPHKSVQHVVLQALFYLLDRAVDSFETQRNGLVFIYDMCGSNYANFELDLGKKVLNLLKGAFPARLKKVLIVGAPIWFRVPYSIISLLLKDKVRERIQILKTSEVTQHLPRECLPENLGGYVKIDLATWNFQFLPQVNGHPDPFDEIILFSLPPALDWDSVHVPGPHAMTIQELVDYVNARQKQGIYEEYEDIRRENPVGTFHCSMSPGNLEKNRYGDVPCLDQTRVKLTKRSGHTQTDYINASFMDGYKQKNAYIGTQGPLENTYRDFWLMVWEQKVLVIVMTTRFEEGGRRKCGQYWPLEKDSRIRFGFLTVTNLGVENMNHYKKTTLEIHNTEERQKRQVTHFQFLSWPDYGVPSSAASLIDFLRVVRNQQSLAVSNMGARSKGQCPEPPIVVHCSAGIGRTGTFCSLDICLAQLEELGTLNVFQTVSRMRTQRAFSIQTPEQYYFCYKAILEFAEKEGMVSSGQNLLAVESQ
# test.name: Inhibition of recombinant human MEG2 expressed in Escherichia coli […] preincubated for 15 mins followed by substrate addition and measured after 60 mins
pIC50: −log10 of the molar value.
measured.attribute: pIC50

Reference set, count: 2
{"structure.smiles": "C[C@@H]1C(=O)N/C(=C\\c2ccccc2)c2nc3c(O)cccc3c(=O)n21", "value.measured": "4.06 to 4.85"}
{"structure.smiles": "C[C@@H]1C(=O)N[C@](O)(Cc2ccccc2)c2nc3c(c(=O)n21)C=CC=CO3", "value.measured": "4.06 to 4.85"}

Prompt: // map `CC[C@@H](C)C1=C2N=C3OC=CC=C[C@]3(OC)C(=O)N2[C@@H](Cc2ccccc2)C(=O)N1` to recorded pIC50 (system: Tyrosine-protein phosphatase non-receptor type 9 (Homo sapiens))
Completion: 4.06 to 4.85
